# TARGET OF ASSAY: T1, cynomolgus (Macaca fascicularis) ST2L extracellular domain with C-terminal His6 tag (Macaca fascicularis (cynomolgus), UniProt Q01638 19-321 (human entry))
# T1 construct: also called cyno ST2L-ECD; cynoST2L-ECD
# T1 chain: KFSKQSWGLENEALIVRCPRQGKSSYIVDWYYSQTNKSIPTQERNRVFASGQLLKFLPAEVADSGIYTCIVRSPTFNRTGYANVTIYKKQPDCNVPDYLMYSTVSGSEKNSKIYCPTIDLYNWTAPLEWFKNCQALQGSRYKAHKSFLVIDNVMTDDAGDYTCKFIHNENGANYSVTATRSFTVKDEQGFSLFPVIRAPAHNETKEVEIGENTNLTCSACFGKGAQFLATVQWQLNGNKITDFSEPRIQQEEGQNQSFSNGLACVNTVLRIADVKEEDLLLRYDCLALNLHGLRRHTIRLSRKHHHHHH
# PROCEDURE DETAILS: ProteOn SPR, mAb captured, ST2L-ECD in solution
REPORTED PROPERTY: kon (M⁻¹ s⁻¹)
The reply should be a number in M⁻¹ s⁻¹, with the unit left off.

// worked examples, kon included
| BINDER | MEASUREMENT UNITS | VALUE |
| --- | --- | --- |
| STLM194 (antibody, V domains shown, C2494 HFA mAb: VH STLH195 + VL STLL273 (A20)) VH: QVQLVQSGAEVKKPGASVKVSCKVSAFNIKDDYMHWVRQAPGKGLEWMGRIDPAIGNTEYAPKFQDRVTMTEDTSTDTAYMELSSLRSEDTAVYYCATGDFYAMDYWGQGTLVTVSS VL: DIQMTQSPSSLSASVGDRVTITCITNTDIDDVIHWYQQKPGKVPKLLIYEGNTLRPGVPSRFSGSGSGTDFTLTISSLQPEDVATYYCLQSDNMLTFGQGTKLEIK | M⁻¹ s⁻¹ | 1e+08 |
| STLM192 (antibody, V domains shown, C2494 HFA mAb: VH STLH195 + VL STLL275 (L5)) VH: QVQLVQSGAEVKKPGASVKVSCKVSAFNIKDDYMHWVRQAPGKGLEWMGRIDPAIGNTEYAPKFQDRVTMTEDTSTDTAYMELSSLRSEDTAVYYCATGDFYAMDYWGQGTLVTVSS VL: DIQMTQSPSSVSASVGDRVTITCITNTDIDDVIHWYQQKPGKAPKLLIYEGNTLRPGVPSRFSGSGSGTDFTLTISSLQPEDFATYYCLQSDNMLTFGQGTKLEIK | M⁻¹ s⁻¹ | 1e+08 |
| STLM195 (antibody, V domains shown, C2494 HFA mAb: VH STLH195 + VL STLL272 (O18)) VH: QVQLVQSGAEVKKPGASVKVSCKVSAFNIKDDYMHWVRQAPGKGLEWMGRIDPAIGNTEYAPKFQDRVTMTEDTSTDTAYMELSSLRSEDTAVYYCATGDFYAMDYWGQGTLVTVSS VL: DIQMTQSPSSLSASVGDRVTITCITNTDIDDVIHWYQQKPGKAPKLLIYEGNTLRPGVPSRFSGSGSGTDFTFTISSLQPEDIATYYCLQSDNMLTFGQGTKLEIK | M⁻¹ s⁻¹ | 1e+08 |

Entry STLM199 (antibody, V domains shown, C2494 HFA mAb: VH STLH194 + VL STLL278 (L2)) VH: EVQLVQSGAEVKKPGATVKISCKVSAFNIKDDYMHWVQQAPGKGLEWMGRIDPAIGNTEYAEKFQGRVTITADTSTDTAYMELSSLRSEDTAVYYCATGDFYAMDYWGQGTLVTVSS VL: EIVMTQSPATLSVSPGERATLSCITNTDIDDVIHWYQQKPGQAPRLLIYEGNTLRPGIPARFSGSGSGTEFTLTISSLQSEDFAVYYCLQSDNMLTFGQGTKLEIK : reported kon = ? 7.78e+07

Now give it for STLM191 (antibody, V domains shown, C2494 HFA mAb: VH STLH195 + VL STLL276 (L12)) VH: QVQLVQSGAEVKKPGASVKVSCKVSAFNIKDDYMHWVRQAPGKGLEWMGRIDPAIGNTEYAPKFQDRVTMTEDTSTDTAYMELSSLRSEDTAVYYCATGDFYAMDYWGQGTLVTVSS VL: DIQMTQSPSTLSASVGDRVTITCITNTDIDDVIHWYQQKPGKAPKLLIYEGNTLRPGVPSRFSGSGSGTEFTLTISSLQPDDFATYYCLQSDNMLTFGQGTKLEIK too. 1e+08

Likewise for STLM200 (antibody, V domains shown, C2494 HFA mAb: VH STLH194 + VL STLL277 (L8)) VH: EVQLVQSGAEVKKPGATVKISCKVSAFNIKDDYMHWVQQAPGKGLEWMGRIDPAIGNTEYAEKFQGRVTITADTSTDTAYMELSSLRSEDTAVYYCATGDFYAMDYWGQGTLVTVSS VL: DIQLTQSPSFLSASVGDRVTITCITNTDIDDVIHWYQQKPGKAPKLLIYEGNTLRPGVPSRFSGSGSGTEFTLTISSLQPEDFATYYCLQSDNMLTFGQGTKLEIK ? 8.23e+07

Entry to check: STLM193 (antibody, V domains shown, C2494 HFA mAb: VH STLH195 + VL STLL274 (O12)) VH: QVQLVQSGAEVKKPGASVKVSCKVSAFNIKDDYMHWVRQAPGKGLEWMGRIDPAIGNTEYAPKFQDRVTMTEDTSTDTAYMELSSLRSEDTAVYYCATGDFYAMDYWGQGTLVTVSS VL: DIQMTQSPSSLSASVGDRVTITCITNTDIDDVIHWYQQKPGKAPKLLIYEGNTLRPGVPSRFSGSGSGTDFTLTISSLQPEDFATYYCLQSDNMLTFGQGTKLEIK 1e+08

Source listed as patent US20170066831A1.
